Ref: PubChem BioAssay (NCI)

Experiment: NCI Yeast Anticancer Drug Screen. Data for the mlh1 rad18 strain (AID 175)
Conditions: S. cerevisiae mlh1 rad18 strain growth inhibition; at 50.0 µM; stronger effect = higher value
Method: Growth inhibition of yeast strains with defined genetic alterations is measured as a screen for potential anti-cancer activity. Selected strains with alterations in DNA damage repair or cell cycle control were exposed to compounds and growth inhibition was measured relative to vehicle treated controls. The strain used in this assay is mlh1 rad18
Compounds without any hit were thinned out: in the full panel of roughly 79,000, 15% have a hit.
# growth inhibition >= 10% gives Condition met, anything below gives Condition not met

COc1ccc(CCNC(=S)N/C=C\c2nc3ccccc3[nH]c2=O)cc1OC; Condition met
ClCC#CCCl; Condition not met
O=C(O)/C=C/c1ccncc1; Condition not met

Prompt: Would you say O=C1OC(CC(=O)c2ccc(Cl)c(Cl)c2)C(Cl)=C1Cl (configuration not stated) shows growth inhibition at minimum 10%?
Response: Condition met

Prompt: Would you say COC(=O)C(CCc1ccc([N+](=O)[O-])cc1)(CCc1ccc([N+](=O)[O-])cc1)C(C)=O shows growth inhibition at minimum 10%?
Response: Condition met

Prompt: Would you say CCOC(=O)c1c(O)nc2sc3ccccc3n2c1=O shows growth inhibition at minimum 10%?
Response: Condition met

Prompt: Would you say O=Cc1ccccc1COC(=O)c1cc(C(=O)OCc2ccccc2C=O)c(C(=O)OCc2ccccc2C=O)cc1C(=O)OCc1ccccc1C=O shows growth inhibition at minimum 10%?
Response: Condition not met

Prompt: Would you say CCOc1ccc2[nH]c(C)c(CC(=O)O)c2c1 shows growth inhibition at minimum 10%?
Response: Condition not met

Prompt: Would you say CC(=O)OCCn1c(Cc2ccc(Cl)cc2)nn(C(C)=O)c1=O shows growth inhibition at minimum 10%?
Response: Condition met

Prompt: Would you say CCOC(=O)/C(O)=C(\C#N)c1cc(C)ccc1C shows growth inhibition at minimum 10%?
Response: Condition met

Prompt: Would you say CN(C)C(N)=Nc1ncnc2ccccc12 shows growth inhibition at minimum 10%?
Response: Condition not met

Prompt: Would you say CCOC(=O)Cc1ccccn1 shows growth inhibition at minimum 10%?
Response: Condition not met

----------
For each entry below, report its growth inhibition value.
experiment: NCI Yeast Anticancer Drug Screen. Data for the sgs1 mgt1 strain (AID 161);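 further: 0% = growth of cultures given vehicle only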; settings: S. cerevisiae sgs1 mgt1 strain, at 50.0 µM, stronger effect = higher value
Compounds without any hit were thinned out: in the full panel of roughly 79,000, 15% have a hit. Calls of active or inactive are those of the source. No stated cut-off is given here; in the data, active means growth inhibition above about 70%; inactive means the rest.

CC(C)(C)c1ccnc(C(O)(C(F)(F)F)C(F)(F)F)c1; -12.2% (inactive)

For every item in the list below, what is its measured growth inhibition?
1. Cc1ccc(S(=O)(=O)c2ccc(O)c(C)c2)c(O)c1 (tested in a mixture with another compound)
2. Nc1nc(SCCc2ccccc2)nc2nc3c(c(-c4ccccc4)c12)CCCC3
3. OC1C=CC2CCC1C2 (stereo not drawn)
4. NC1(N)ON(c2ccc(C=O)cc2)C(c2ccc([N+](=O)[O-])cc2)S1 (stereo not drawn)
5. CCO/C=C1/N=C(c2ccc(OC)c(OC)c2)OC1=O
6. O=C(O)CSCC(=O)c1ccccc1
7. CC1CCCC(C(O)(C(=O)O)C2CCCCC2)C1 (stereo not drawn)
8. CC(N)(C(=O)O)c1ccccc1 (stereo not drawn)

Response:
1. 35.3% (inactive)
2. -3.2% (inactive)
3. -16.4% (inactive)
4. 11% (inactive)
5. 18.6% (inactive)
6. -43.2% (inactive)
7. 22.4% (inactive)
8. 18.6% (inactive)
